target: CDK2/Cyclin E complex (Homo sapiens, UniProt P24941); experiment: CDK2/Cyclin E fluorescence-based microfluidic mobility shift assay (CDK2 Biochemical Caliper Assay); details: read-out: Biochemical CDK2/CyclinE Caliper IC50
recorded.metric: IC50

Illustrative cases are given below, each with its answer.
compound: CC(C)NC(=O)O[C@H]1CC[C@@H](c2cc(Nc3nccc4ncsc34)n[nH]2)C1 (single isomer, unassigned) [Example 122]
recorded.metric: IC50
result: ≤ 100 nM

compound: COCc1cc2c(Nc3cc([C@H]4C[C@@H](OC(=O)N[C@@H](C)C5CC5)CO4)[nH]n3)nccn2n1 [Example 656]
recorded.metric: IC50
result: ≤ 100 nM

compound: Cc1cc(Nc2cc(C3CCCC3)[nH]n2)c2c(F)cccc2n1 [Example 812]
recorded.metric: IC50
result: 1000 to 100000 nM

compound: CCS(=O)(=O)N[C@@H]1CC[C@H](c2cc(NC(=O)Cc3cc(C)no3)n[nH]2)C1 (single isomer, unassigned) [Example 133]
recorded.metric: IC50
result: 1000 to 100000 nM

Now take the following compound into account.
Query string: Which IC50 reading was recorded for the compound Cn1nc(CCOC(F)(F)F)cc1C(=O)Nc1cc([C@H]2C[C@@H](OC(=O)NC3(C)CC3)CO2)[nH]n1 [Example 791] ?
Result string: ≤ 100 nM

====

The entries below are paired with their reported pIC50.
Target: CDK2/Cyclin E complex (Homo sapiens)
Assay: CDK2/Cyclin E fluorescence-based microfluidic mobility shift assay (CDK2 Biochemical Caliper Assay)
Conditions: read-out: Biochemical CDK2/CyclinE Caliper IC50
Description: Compounds of the present disclosure were tested in a CDK2/Cyclin E fluorescence-based microfluidic mobility shift assay (PerkinElmer). The active wild type CDK2/Cyclin E complex was purchased from Eurofins (14-475). Compound stocks were prepared in DMSO and were serially diluted into 11 concentrations by 3-fold dilution. […] The final reaction components were 0.1 nM CDK2/Cyclin E, 2000 uM ATP and 1.5 uM FL Peptide 18 and 1% DMSO. […] Samples were analyzed using a LabChip EZ reader (PerkinElmer).
pIC50: −log10 of the molar value.

molecule: COCc1cn2c(Nc3cc([C@@H]4C[C@@H](OC(=O)NC5(C)CC5)CO4)[nH]n3)nccc2n1
target.or.system: CDK2/Cyclin E complex (Homo sapiens)
pIC50: 4.00 to 6.00

Query string: Could you share what pIC50 was measured for COCc1cc(C(=O)Nc2cc([C@@H]3CC[C@H](Oc4nnccc4C4CCC4)C3)[nH]n2)n(C)n1 (single isomer, unassigned) , tested on CDK2/Cyclin E complex (Homo sapiens)?
Result string: ≥ 7.00

Query string: Now try CC1(NC(=O)O[C@H]2CO[C@@H](c3cc(Nc4ccnc5nc[nH]c45)n[nH]3)C2)CC1 .
Result string: 6.60 to 7.00

Query string: Now try CC(=O)Nc1nc2ccnc(Nc3cc(C4CC[C@H](OC(=O)NC(C)C)C4)[nH]n3)c2s1 (single isomer, unassigned) .
Result string: ≥ 7.00

Query string: Now try COCc1cc2c(Nc3cc([C@@H]4C[C@H](OC(=O)NC56CC(C5)C6)CO4)[nH]n3)nccn2n1 .
Result string: ≥ 7.00

Query string: Now try C#CC1(NC(=O)O[C@H]2CO[C@@H](c3cc(Nc4nccn5nc(COC)cc45)n[nH]3)C2)CC1 .
Result string: ≥ 7.00

Query string: Now try COCc1cc2c(Nc3cc([C@H]4C[C@@H](OC(=O)NC56CCC(CC5)OC6)CO4)[nH]n3)nccn2n1 .
Result string: ≥ 7.00

Query string: Now try COCc1cc2c(Nc3cc([C@H]4C[C@@H](OC(=O)N[C@H](C)CC(F)(F)F)CO4)[nH]n3)nccn2n1 .
Result string: ≥ 7.00

Query string: Now try COCc1cc(C(=O)Nc2cc([C@@H]3CC[C@H](c4ccc(C)nn4)C3)[nH]n2)n(C)n1 (single isomer, unassigned) .
Result string: 4.00 to 6.00

Query string: Now try COCc1cc2c(Nc3cc([C@H]4C[C@@H](OC(=O)NC56CC(C5)C6)CO4)[nH]n3)nccn2n1 .
Result string: ≥ 7.00

Query string: Now try COCc1cc(C(=O)Nc2cc([C@H]3C[C@@H](COc4cnn(C)c4C(C)C)C3)[nH]n2)n(C)n1 .
Result string: 6.60 to 7.00

Query string: Now try COCc1cc2c(Nc3cc([C@H]4C[C@@H](OC(=O)N[C@@H](C)CC(F)(F)F)CO4)[nH]n3)nccn2n1 .
Result string: ≥ 7.00

Query string: Now try COCc1cc2c(Nc3cc([C@H]4C[C@@H](OC(=O)N[C@@H](C)C5COC5)CO4)[nH]n3)nccn2n1 .
Result string: 6.60 to 7.00

Query string: Now try CC(C)NC(=O)O[C@H]1CC[C@@H](c2cc(Nc3cncc(OCCO)n3)n[nH]2)C1 (single isomer, unassigned) .
Result string: ≥ 7.00

Query string: Now try OCCOc1cncc(Nc2cc(C3CCCC3)[nH]n2)n1 .
Result string: 6.60 to 7.00

Query string: Now try CC(C)c1nc(Nc2cc([C@H]3C[C@@H](OC(=O)NC4(C)CC4)CO3)[nH]n2)c2cc[nH]c2n1 .
Result string: 6.60 to 7.00

Query string: Now try Cn1nc(COC(F)(F)F)cc1C(=O)Nc1cc([C@H]2C[C@@H](OC(=O)NC3(C)COC3)CO2)[nH]n1 .
Result string: ≥ 7.00
